# TEST TARGET: Ba/F3-Flt3 cells (Homo sapiens, UniProt P36888, cells depend on it, form not given)
# Construct: Ba/F3-flt3 − IL3 pIC50; other: without IL3
# MEASUREMENT NOTES: Ba/F3-Flt3 assay (Alamar Blue)
# Format: cell-based, murine
# APPLIED CONDITIONS: without IL3
MEASURE NAME: Ba/F3-flt3 − IL3 pIC50

Example entries begin here.
# COMPOUND, RESULT
measured = [
    ("Cc1nnc(-c2ccn3c(-c4cc(NC(=O)NCC(F)(F)F)cc(OC(C)C)c4)cnc3c2)o1", "<5"),
    ("Cc1nc(N)cc(-c2ccn3c(-c4cc(NC(=O)NCC(F)(F)F)cc(OC(C)C)c4)cnc3c2)n1", "<5"),
    ("CCNC(=O)Nc1cc(OC(C)C)cc(-c2cnc3cc(-c4nnc(C)s4)ccn23)c1", "<5"),
    ("Cc1nnc(-c2ccn3c(-c4cc(NC(=O)NCC(F)(F)F)cc(NC(C)C)c4)cnc3c2)o1", "<5"),
    ("CC(C)Oc1cc(NC(=O)NCC(F)(F)F)cc(-c2cnc3cc(OCCCO)ccn23)c1", "<5"),
    ("CCNC(=O)Nc1cc(OC(C)C)cc(-c2cnc3cc(-c4nncs4)ccn23)c1", 5.04),
    ("CC(C)Oc1cc(NC(=O)NCC(F)(F)F)cc(-c2cnc3cc(-c4nccc(C(C)C)n4)ccn23)c1", "<5"),
    ("Cc1nnc(-c2ccn3c(-c4cc(CN(C)C)cc(NC(=O)NCC(F)(F)F)c4)cnc3c2)o1", "<5"),
    ("CC(C)Oc1cc(NC(=O)NCC(F)(F)F)cc(-c2cnc3cc(N4CCC(F)(F)CC4)ccn23)c1", "<5"),
    ("CC(C)Oc1cc(NC(=O)NCC(F)(F)F)cc(-c2cnc3cc(-c4ncccn4)ccn23)c1", "<5"),
]

## Input # Ba/F3-flt3 − IL3 pIC50 lookup, item `O=C(NCC(F)(F)F)Nc1cc(OC2CCC2)cc(-c2cnc3cc(-c4ccnc(C(F)(F)F)n4)ccn23)c1`
## Output <5

## Input # Ba/F3-flt3 − IL3 pIC50 lookup, item `CC(C)Oc1cc(NC(=O)NCC(F)(F)F)cc(-c2cnc3cc(C(=O)C4CC4)ccn23)c1`
## Output <5

## Input # Ba/F3-flt3 − IL3 pIC50 lookup, item `CNCc1cc(NC(=O)NCC(F)(F)F)cc(-c2cnc3cc(-c4nnc(C)o4)ccn23)c1`
## Output <5

## Input # Ba/F3-flt3 − IL3 pIC50 lookup, item `Cc1nnc(-c2ccn3c(-c4cc(NC(=O)NCC(F)(F)F)cc(OC(C)C)c4)cnc3c2)s1.Cl`
## Output <5

## Input # Ba/F3-flt3 − IL3 pIC50 lookup, item `COCc1cc(NC(=O)NCC(F)(F)F)cc(-c2cnc3cc(-c4nnc(C)o4)ccn23)c1`
## Output <5

Data origin: patent US8722687B2
